Tested on: adhesion of Candida albicans to human Buccal Epithelial Cells
Assay: microbe, parasite or virus in culture
Assay type: cell-based
Conditions: Table 21
value-kind: % inhibition (%)
I only need the number, in %, no unit after it.

Identify measured % inhibition associated with C=CCCCCCCCCC(=O)O [Free undecylenic acid, undecylenic acid]
14

Identify measured % inhibition associated with CCCCCCCCCC(=O)O [Free capric acid, capric acid]
10

Identify measured % inhibition associated with CCCCCC(=O)O [Free caproic acid, caproic acid]
11

Identify measured % inhibition associated with CCCCCCCC(=O)O [Free caprylic acid, caprylic acid]
7

Identify measured % inhibition associated with CCCCCCCCC(=O)O [Free pelargonic acid, pelargonic acid]
16

Identify measured % inhibition associated with CCCCCCCCCCCC(=O)O [Free lauric acid, lauric acid]
5

Identify measured % inhibition associated with CCCCCCCCCCCCCC(=O)O [Free myristic acid, myristic acid]
8

###

Test system: adhesion of Candida albicans to human Buccal Epithelial Cells
Test: microbe, parasite or virus in culture
Format: cell-based
Details: Table 21
value-kind: % Adhesion (%)
I only need the number, in %, no unit after it.

Identify measured % Adhesion associated with CCCCCCCC(=O)O [Free caprylic acid, caprylic acid]
93

Identify measured % Adhesion associated with CCCCCCCCCC(=O)O [Free capric acid, capric acid]
90

Identify measured % Adhesion associated with CCCCCCCCCCCCCC(=O)O [Free myristic acid, myristic acid]
92

Identify measured % Adhesion associated with CCCCCC(=O)O [Free caproic acid, caproic acid]
89

Identify measured % Adhesion associated with CCCCCCCCC(=O)O [Free pelargonic acid, pelargonic acid]
84

Identify measured % Adhesion associated with CCCCCCCCCCCC(=O)O [Free lauric acid, lauric acid]
95

Identify measured % Adhesion associated with C=CCCCCCCCCC(=O)O [Free undecylenic acid, undecylenic acid]
86

Reference source for all entries: patent US12208075B2
